Activity for assorted compounds
Molecular target: D(2) dopamine receptor (Homo sapiens, UniProt P14416)
Sequence (P14416 whole entry): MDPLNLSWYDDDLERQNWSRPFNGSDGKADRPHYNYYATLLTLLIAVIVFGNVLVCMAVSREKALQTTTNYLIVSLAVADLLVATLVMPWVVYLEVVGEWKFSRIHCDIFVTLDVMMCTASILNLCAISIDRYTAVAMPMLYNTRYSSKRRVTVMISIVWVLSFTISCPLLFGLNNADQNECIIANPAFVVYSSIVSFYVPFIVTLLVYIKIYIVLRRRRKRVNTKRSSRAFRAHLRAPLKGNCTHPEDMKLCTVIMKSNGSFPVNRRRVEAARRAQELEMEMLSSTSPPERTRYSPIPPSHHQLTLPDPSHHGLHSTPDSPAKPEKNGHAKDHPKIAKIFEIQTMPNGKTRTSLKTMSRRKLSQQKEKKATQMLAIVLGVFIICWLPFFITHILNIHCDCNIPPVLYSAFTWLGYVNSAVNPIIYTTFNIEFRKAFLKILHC
Assay: Displacement of [3H]spiperone from human cloned dopamine D2-short expressed in CHO cells
Format: cell-based
Design: concentration or dose not given beside the values
Just the number please, in %, no unit attached.

smiles.string: COc1ccc(-n2cc(CCCC(=O)NCCCCN3CCN(c4cccc(Cl)c4Cl)CC3)nn2)cc1
target.entity: D(2) dopamine receptor (Homo sapiens, UniProt P14416)
reported.value: 43
//
smiles.string: O=C(NCCCCN1CCN(c2cccc(Cl)c2Cl)CC1)c1cn(-c2ccc([N+](=O)[O-])cc2)nn1
target.entity: D(2) dopamine receptor (Homo sapiens, UniProt P14416)
reported.value: 53
//
smiles.string: COc1ccc(-n2cc(CCCC(=O)NCCCCN3CCN(c4ccccc4OC)CC3)nn2)cc1
target.entity: D(2) dopamine receptor (Homo sapiens, UniProt P14416)
reported.value: 33
//
smiles.string: COc1ccccc1N1CCN(CCCCNC(=O)c2cn(-c3ccc([N+](=O)[O-])cc3)nn2)CC1
target.entity: D(2) dopamine receptor (Homo sapiens, UniProt P14416)
reported.value: 38

Request: Returns the measured Activity for the input compound. Input: COc1ccccc1N1CCN(CCCCNC(=O)CCCc2cn(-c3ccc([N+](=O)[O-])cc3)nn2)CC1
Response: 52

Request: Returns the measured Activity for the input compound. Input: O=C(CCCc1cn(-c2ccc([N+](=O)[O-])cc2)nn1)NCCCCN1CCN(c2cccc(Cl)c2Cl)CC1
Response: 43
